The measured values listed here are drawn from paper PMC5540273.

For each of the compounds below, state its %Inh.
# Test system: ULK3
# condition.context: concentration: 1 μM, replicates: in singlicate; n = 1
Could you give me the number in %? Just the number is fine.

Q) Would you mind telling me what %Inh value was observed for Cc1nnc(-c2ccc3occ(-c4ccc(S(C)=O)cc4)c3c2)[nH]1 (centres unmarked) ?
A) 14

Q) Would you mind telling me what %Inh value was observed for COc1cc2ncnc(Nc3ccc4nc(-c5ccccc5)[nH]c4c3)c2cc1OC.Cl ?
A) 2

Q) Would you mind telling me what %Inh value was observed for COc1ccc(C2=C(Nc3cccc(C(=O)O)c3)C(=O)NC2=O)cc1 ?
A) 28

Q) Would you mind telling me what %Inh value was observed for COc1cc(Nc2nccc(N3CCC(NC(=O)Nc4cc(C)ccc4C)C3)n2)cc(OC)c1OC (centres unmarked) ?
A) 92.4

Q) Would you mind telling me what %Inh value was observed for Cc1cccc(-c2nc(C)cc(Nc3ccncc3)n2)n1 ?
A) 6

* * *

# System: PRKCD
# condition.context: concentration: 1 μM, replicates: in singlicate; n = 1
measurement.kind: %Inh (%)
Could you give me the number in %? Just the number is fine.

Q) Would you mind telling me what %Inh value was observed for Cc1cccc(-c2cc(Nc3ccncc3)c3ccccc3n2)n1 ?
A) 0

Q) Would you mind telling me what %Inh value was observed for Cl.c1ccc(-c2n[nH]cc2-c2ccnc(-c3ccc(CN4CCOCC4)cc3)c2)nc1 ?
A) 11

Q) Would you mind telling me what %Inh value was observed for NC(=O)c1nnc2ccccc2c1N ?
A) 0

Q) Would you mind telling me what %Inh value was observed for COc1cc(Nc2nccc(N3CCC(NC(=O)Nc4cc(C)ccc4C)C3)n2)cc(OC)c1OC (centres unmarked) ?
A) 0

Q) Would you mind telling me what %Inh value was observed for C[C@@H]1CCCCN1c1cc(-c2ccc3c(N)n[nH]c3c2)nc(N)n1 ?
A) 0

* * *

System: BRAF | Read-out: Kd;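 further: kd values determined as follow-up on hits from a single-replicate KINOMEscan panel screen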

Q) Would you mind telling me what Kd value was observed for COC(=O)c1c(-c2ccccc2)c2cc(C(=O)O)ccc2c(=O)n1Cc1ccccc1 ?
A) 50 nM

Q) Would you mind telling me what Kd value was observed for Cc1cccc(-c2nc(-c3ccc(S(C)(=O)=O)cc3)sc2-c2ccnc(NCCc3ccccc3)c2)c1 ?
A) 81 nM

* * *

# System: PRKCD
# condition.context: concentration: 1 μM, replicates: in singlicate; n = 1
measurement.kind: %Inh (%)
Could you give me the number in %? Just the number is fine.

Q) Would you mind telling me what %Inh value was observed for COc1ccc(CNC(=O)NC2CCN(c3ccnc(Nc4cc(OC)c(OC)c(OC)c4)n3)C2)cc1 (stereo not drawn) ?
A) 0

Q) Would you mind telling me what %Inh value was observed for Cc1csc(-c2nc(Nc3ccncc3)c3ccccc3n2)n1 ?
A) 21

Q) Would you mind telling me what %Inh value was observed for Cc1ccccc1-n1cnc2c(N)ncnc21 ?
A) 0

Q) Would you mind telling me what %Inh value was observed for CC1=C(C(=O)Nc2cc3cn[nH]c3cc2F)C(c2ccc(C(F)(F)F)cc2)CC(=O)N1 (stereo not drawn) ?
A) 0

Q) Would you mind telling me what %Inh value was observed for Cl.O=C(Nc1cccc(-c2nn3ncccc3c2-c2ccnc(Nc3cccnc3)n2)c1)c1c(F)cccc1F ?
A) 0

Q) Would you mind telling me what %Inh value was observed for CS(=O)(=O)c1ccc(-c2nc3n(c2-c2ccncc2)CCC3)cc1 ?
A) 0

Q) Would you mind telling me what %Inh value was observed for Fc1cccc(COc2nnc(-c3ccc4c(c3)CCO4)o2)c1 ?
A) 12

Q) Would you mind telling me what %Inh value was observed for O=c1cc(N2CCOCC2)nc2n(Cc3cccc(Cl)c3Cl)ccn12 ?
A) 0

Q) Would you mind telling me what %Inh value was observed for CS(=O)(=O)c1ccc(-c2c(-c3ncn[nH]3)sc(N3CCOCC3)c2C#N)cc1 ?
A) 41

* * *

# Tested on: S6K1
# condition.context: concentration: 1 μM, replicates: in singlicate; n = 1
Hi all, reminder that labels come from %Inh, split as LOW (below 4%), MEDIUM (4% to below 10%), HIGH (10% or more)

Q) Class for Cl.O=C(Nc1cccc(-c2nn3ncccc3c2-c2ccnc(Nc3cccnc3)n2)c1)c1c(F)cccc1F ?
A) HIGH

Q) Class for CC1=C(C(=O)Nc2cc3cn[nH]c3cc2F)C(c2ccc(C(F)(F)F)cc2)CC(=O)N1 (centres unmarked) ?
A) HIGH

Q) Class for Cc1c(O)cccc1Nc1ccnc2ccc(C(F)(F)F)cc12.Cl ?
A) LOW

Q) Class for Cc1ccc(-c2cc(-c3c[nH]nc3-c3ccccn3)ccn2)cc1 ?
A) MEDIUM

Q) Class for Cc1cccc(-c2nc(Nc3cccc(C(N)=O)c3)c3ccccc3n2)n1 ?
A) MEDIUM

Q) Class for COc1cc(Nc2nccc(N3CCC(NC(=O)Nc4cc(C)ccc4C)C3)n2)cc(OC)c1OC (centres unmarked) ?
A) LOW

Q) Class for COc1ccc2nc(-c3cccc(C)n3)nc(Nc3ccncc3)c2c1 ?
A) LOW

Q) Class for Cc1csc(-c2nc(Nc3ccncc3)c3ccccc3n2)n1 ?
A) HIGH

Q) Class for COc1ccccc1CNC(=O)c1cc(C(=O)c2ccccc2C)c[nH]1 ?
A) HIGH

Q) Class for O=S(=O)(c1ccc(-c2ccnc3[nH]ccc23)cc1)N1CCCC1 ?
A) MEDIUM

* * *

For each of the compounds below, state its %Inh.
# Tested on: ERBB2
# condition.context: concentration: 1 μM, replicates: in singlicate; n = 1
Could you give me the number in %? Just the number is fine.

Q) Would you mind telling me what %Inh value was observed for CC(=O)Nc1nc2cnc(Nc3cc(NC(=O)c4cccc(CCC#N)c4)ccc3C)nc2s1 ?
A) 6

Q) Would you mind telling me what %Inh value was observed for COc1cc2ncnc(Nc3ccc4nc(-c5ccccc5)[nH]c4c3)c2cc1OC.Cl ?
A) 23

Q) Would you mind telling me what %Inh value was observed for O=C1NC(=O)C(N2CCc3ccccc32)=C1c1ccccc1Cl ?
A) 26

Q) Would you mind telling me what %Inh value was observed for O=C(Nc1ccccc1)Nc1cccc(Oc2ccc3nccn3n2)c1 ?
A) 38

Q) Would you mind telling me what %Inh value was observed for CS(=O)(=O)c1ccc(-c2c(-c3ncn[nH]3)sc(N3CCOCC3)c2C#N)cc1 ?
A) 41

* * *

# Tested on: MAP3K15
# condition.context: concentration: 1 μM, replicates: in singlicate; n = 1
measurement.kind: %Inh (%)
Could you give me the number in %? Just the number is fine.

Q) Give recorded %Inh with MAP3K15 for the following compound: Cc1cc(NCC(c2ccccc2)c2ccccc2)nc(NCc2ccc(C(F)(F)F)cc2)n1 [GW497681]
A) 0

Q) Give recorded %Inh with MAP3K15 for the following compound: CC(C)(C)c1ccc(C(=O)Nc2cn3cc(Cl)ccc3n2)cc1
A) 1

Q) Give recorded %Inh with MAP3K15 for the following compound: Fc1cccc(COc2nnc(-c3ccc4c(c3)CCO4)o2)c1
A) 17

Q) Give recorded %Inh with MAP3K15 for the following compound: COc1cccc(NC(=O)NC2CCN(c3ccnc(Nc4ccc(F)cc4)n3)C2)c1 (centres unmarked) [GSK1379721]
A) 0

Q) Give recorded %Inh with MAP3K15 for the following compound: Cc1ccc(NC(=O)Nc2cccc(Cl)c2)cc1-c1ccc(C(=O)Nc2ccncc2)cc1 [GSK1398468]
A) 0

Q) Give recorded %Inh with MAP3K15 for the following compound: COc1ccc(CNC(=O)NC2CCN(c3ccnc(Nc4cc(OC)c(OC)c(OC)c4)n3)C2)cc1 (centres unmarked) [GSK1379748]
A) 0

Q) Give recorded %Inh with MAP3K15 for the following compound: O=S(=O)(c1ccc(-c2ccnc3[nH]ccc23)cc1)N1CCCC1 [GSK846226]
A) 0

Q) Give recorded %Inh with MAP3K15 for the following compound: COc1cccc(-c2cc(-c3c[nH]nc3-c3ccccn3)ccn2)c1 [GW680338]
A) 0

Q) Give recorded %Inh with MAP3K15 for the following compound: Cc1ccc(-c2cc(-c3c[nH]nc3-c3ccccn3)ccn2)cc1 [GW684088]
A) 0

Q) Give recorded %Inh with MAP3K15 for the following compound: Cc1cccc(-c2nc(C)cc(Nc3ccncc3)n2)n1 [GSK257997]
A) 0

Q) Give recorded %Inh with MAP3K15 for the following compound: CC1=C(C(=O)Nc2cc3cn[nH]c3cc2F)C(c2ccc(C(F)(F)F)cc2)CC(=O)N1 (centres unmarked) [GSK429286]
A) 16

Q) Give recorded %Inh with MAP3K15 for the following compound: Cl.O=C(Nc1cccc(-c2nn3ncccc3c2-c2ccnc(Nc3cccnc3)n2)c1)c1c(F)cccc1F [GSK312879]
A) 24

Q) Give recorded %Inh with MAP3K15 for the following compound: COc1cc2ncn(-c3cc(OCC4CCCO4)c(C(N)=O)s3)c2cc1OC (centres unmarked) [GSK204607]
A) 0

Q) Give recorded %Inh with MAP3K15 for the following compound: Cn1cncc1-c1ccc2ncnc(Nc3ccc(OCc4ccccc4)cc3)c2c1 [GW320571]
A) 0
